molecular target: Cytochrome P450 2C19 (Homo sapiens) (UniProt P33261); assay: Cytochrome panel assay with activity outcomes; conditions: recombinant CYP, pro-luciferin dealkylation, luminescence, p450-cyp2c19; series mostly up to 57.1 µM
Sequence (P33261 whole entry, looked up): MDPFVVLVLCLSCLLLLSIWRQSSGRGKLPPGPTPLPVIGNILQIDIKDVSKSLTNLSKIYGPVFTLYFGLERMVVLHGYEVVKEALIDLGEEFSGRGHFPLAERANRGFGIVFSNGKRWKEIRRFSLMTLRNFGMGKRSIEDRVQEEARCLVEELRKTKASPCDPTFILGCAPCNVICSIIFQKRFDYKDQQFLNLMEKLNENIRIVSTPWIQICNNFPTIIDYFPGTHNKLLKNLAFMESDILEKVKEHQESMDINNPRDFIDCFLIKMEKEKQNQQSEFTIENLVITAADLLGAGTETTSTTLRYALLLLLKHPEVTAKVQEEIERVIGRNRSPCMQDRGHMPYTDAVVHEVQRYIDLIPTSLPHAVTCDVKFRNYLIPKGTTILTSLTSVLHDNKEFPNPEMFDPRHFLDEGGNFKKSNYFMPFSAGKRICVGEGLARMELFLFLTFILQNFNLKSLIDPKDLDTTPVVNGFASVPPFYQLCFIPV
Screen size: about 16,000 compounds; about 5,800 (36%) were called active. Inconclusive results (about 23%) are left out. The call rests on the fitted dose curve; in most records, active means well fitted curve in the direction sought with a large enough effect; inconclusive means small, poorly fitted or top-dose-only effect, or effect the other way; inactive means no such curve, though single readings can be large or run the other way. Some of the results follow.
// one of active, inactive, no free text

Query :: Field: outcome | Entry: NS(=O)(=O)c1cc(C(=O)O)cc(N2CCCC2)c1Oc1ccccc1
Result :: inactive

Query :: Please state the recorded outcome for this compound: Cc1ccc(OCCCn2c(=O)sc3ccccc32)cc1
Result :: active

Query :: Called result for O=C(O)/C(=C\c1ccncc1)c1cccc2ccccc12
Result :: active

Query :: Identify the outcome logged in this assay for the compound shown: COc1ccccc1CN1CCCC2(CCN(C(=O)c3ccco3)CC2)C1
Result :: inactive

Query :: Field: outcome | Entry: Cc1cccc(OC(=O)CN2C(=O)C3C4CCC(C4)C3C2=O)c1C (stereo not given)
Result :: active

Query :: Please state the recorded outcome for this compound: O=C(Nc1ccc(Br)cc1)C1CCC(=O)N1Cc1ccccc1Cl (stereo not given)
Result :: active

###

target: Cytochrome P450 2C19 (Homo sapiens) (UniProt P33261); assay: Cytochrome panel assay with activity outcomes; details: recombinant CYP, pro-luciferin dealkylation, luminescence, p450-cyp2c19; series mostly up to 57.1 µM
In all, about 16,000 compounds went through this assay and about 5,800 (36%) were called active. Roughly 23% stayed inconclusive and do not appear here. The call rests on the fitted dose curve; in most records, active means well fitted curve in the direction sought with a large enough effect; inconclusive means small, poorly fitted or top-dose-only effect, or effect the other way; inactive means no such curve, though single readings can be large or run the other way. The list shows a part of the results.
Use one of these outcomes when replying: TRUE (active), FALSE (inactive)

Cc1nc2c(C(=O)NCc3ccc4c(c3)OCO4)c[nH]n2c(=O)c1Cc1ccccc1F    TRUE
O=[N+]([O-])c1ccc(N2CCN(CCOc3nonc3-c3ccccc3)CC2)c(Cl)c1    TRUE
COCC(=O)N1CCC[C@@]2(CCN(Cc3ccccc3OC)C2)C1    FALSE
COc1ccc(C2=C(C#N)C(=O)OC2)cc1    FALSE
Cc1ccc2c(c1)N(CC(=O)NC1CCCc3ccccc31)C(=O)CO2 (stereo not drawn)    TRUE

Query :: Given CN1CCN(CC(=O)N2c3ccccc3C(=O)Nc3cccnc32)CC1 , state the outcome it received in this test.
Result :: FALSE

Query :: Dear all, I need the recorded test outcome for O=C(Nc1cc(Sc2ccccn2)cc([N+](=O)[O-])c1)c1ccc(Cl)cc1 , thank you.
Result :: TRUE

Query :: Check the results log: what was the call for COc1cc(NS(C)(=O)=O)ccc1Nc1c2ccccc2nc2ccccc12 ?
Result :: FALSE

###

target: Cytochrome P450 2C19 (Homo sapiens) (UniProt P33261); assay: Cytochrome panel assay with activity outcomes; conditions: recombinant CYP, pro-luciferin dealkylation, luminescence, p450-cyp2c19; series mostly up to 57.1 µM
The campaign covered roughly 16,000 compounds. About 5,800 (36%) were called active. About 23% were inconclusive and are not listed. This is one part of the list.
assayReadout: AC50

Consider the reported AC50 for these compounds:
CC(=O)N1CCC(=O)N(C(C)C)c2ccccc21    inactive
COc1cc(OC)cc(C(=O)NC(=S)NCCc2ccccc2)c1    2.51 µM (active)
COC(=O)C(NC(=O)c1ccc(Cl)cc1)(Nc1nc(C)cs1)C(F)(F)F (configuration not stated)    5.01 µM (active)
Cc1nc2cnc(N3CCN(C)CC3)nc2n(Cc2ccc(F)cc2)c1=O    inactive
C[C@@H]1CCc2cc(F)cc3c(=O)c(C(=O)O)cn1c23    inactive
COC(=O)C1=C(C)NC(=O)NC1c1ccsc1 (configuration not stated)    inactive

Query compound follows.
Query :: Report the value of AC50 obtained on Cytochrome P450 2C19 (Homo sapiens) (UniProt P33261) for CS(=O)(=O)Nc1c(O)ccc2c1CCC[C@H]2C1=NCCN1 .
Result :: inactive

###

target: Cytochrome P450 2C19 (Homo sapiens) (UniProt P33261); assay: Cytochrome panel assay with activity outcomes; settings: recombinant CYP, pro-luciferin dealkylation, luminescence, p450-cyp2c19; series mostly up to 57.1 µM
The whole screen tested about 16,000 compounds, of which about 5,800 (36%) were called active. Roughly 23% stayed inconclusive and do not appear here. The call rests on the fitted dose curve; in most records, active means well fitted curve in the direction sought with a large enough effect; inconclusive means small, poorly fitted or top-dose-only effect, or effect the other way; inactive means no such curve, though single readings can be large or run the other way. The list shows a part of the results.
Thanks in advance; please answer with one of these: active, inactive

Here's what some known entries look like.
N#Cc1ccccc1-c1ccc2ncnc(NCCN3CCOCC3)c2c1    inactive
CCc1c(O)nc2sc3ccccc3n2c1=O    inactive
Cc1ccc(-c2noc(-c3cc4ccccc4oc3=O)n2)cc1    inactive
COc1cc(C2C(C#N)=C(N)N(Nc3ccccc3)C3=C2C(=O)CC(C)(C)C3)ccc1OCc1cccc(F)c1 (stereo not drawn)    active
CCN1C(=O)/C(=C2\SC(N3CCCCC3)=NC2=O)c2ccccc21    active
O=c1oc2ccccc2cc1-c1csc(NN=C2CCCCC2)n1    active
NC(=NC1C2CC3CC(C2)CC1C3)Nc1ccc(I)cc1 (stereo not drawn)    active
COC(=O)c1nn(-c2ccccc2)c(=O)cc1Oc1ccccc1    active
Cc1c(Br)c([N+](=O)[O-])nn1C(C)C(=O)Nc1nccs1 (stereo not drawn)    active
N#Cc1nc(-c2ccc(OCc3ccccc3)cc2)oc1NCCN1CCOCC1    active

Query :: Hello, I am checking results. What call was entered for COc1cc(S(C)=O)ccc1-c1nc2ncccc2[nH]1 (stereo not drawn) ?
Result :: inactive

Query :: Answer briefly: the call reported for Cc1ccc(S(=O)(=O)Oc2ccc(C3C4=C(CCCC4=O)OC4=C3C(=O)CCC4)cc2)cc1 in this assay.
Result :: active

Query :: Answer briefly: the call reported for O=C(NCCNc1ccc([N+](=O)[O-])cc1)c1ccccc1Br in this assay.
Result :: active

Query :: Dear colleague, could you share the recorded outcome for CCCCCOC(=O)c1c(N)n(CCOC)c2nc3ccccc3nc12 when you have a moment?
Result :: active

Query :: # lookup: test call for CCc1ccc2c(-c3cccc(Cl)c3)nc(=O)n(CC)c2n1
Result :: inactive

Query :: For Cc1ccc2c(CC(=O)OCc3cc(=O)n4c(n3)sc3ccccc34)coc2c1 , which call appears in the assay record?
Result :: active

Query :: Tell me the assay call for C[C@@H](O)[C@H]1C(=O)N2C(C(=O)O)=C(S[C@@H]3CN[C@H](C(=O)N(C)C)C3)[C@H](C)[C@H]12 please.
Result :: inactive

Query :: Short answer needed: outcome of this test for Cc1[nH]c2ccccc2c1CCNC(=O)c1ccc2c(c1[N+](=O)[O-])C(=O)c1ccccc1C2=O ?
Result :: active

###

target: Cytochrome P450 2C19 (Homo sapiens) (UniProt P33261); assay: Cytochrome panel assay with activity outcomes; settings: recombinant CYP, pro-luciferin dealkylation, luminescence, p450-cyp2c19; series mostly up to 57.1 µM
Hit rate of the full screen: of about 16,000 compounds, about 5,800 (36%) were called active. Another 23% or so got no clear call; they are omitted. The call rests on the fitted dose curve; in most records, active means well fitted curve in the direction sought with a large enough effect; inconclusive means small, poorly fitted or top-dose-only effect, or effect the other way; inactive means no such curve, though single readings can be large or run the other way. The list shows a part of the results.
# valid calls are YES for active, NO for inactive; nothing else

Solved entries (count: 10):
CS(=O)(=O)Nc1cccc(-c2nc(N3CCOCC3)c3ccccc3n2)c1    NO
CCCN(CCC)C(=S)NC(=O)c1ccc(Cl)cc1Cl    YES
COc1cccc(Sc2cc(N3CCOCC3)nc(-c3ccccc3)n2)c1    YES
CCCCCC1=C2CNC(Cc3ccccc3)(C(=O)OC)C=C2C(C)C1=O (centres undefined)    YES
O=C1c2ccccc2C(=O)N1CCCCN(C(=O)c1ccc([N+](=O)[O-])cc1)c1ccc(Cl)cc1    YES
NS(=O)(=O)c1cccc2c1c([N+](=O)[O-])cc1[nH]c(=O)c(=O)[nH]c12    NO
Clc1ccccc1-c1cncnc1NCc1cccs1    YES
CCOc1cc(CNc2ccc(OC)cc2)cc(Br)c1OCC(=O)NC(C)(C)C    YES
Nc1nc(SCC(=O)Nc2ccccc2Sc2ccc(Cl)cc2)n[nH]1    YES
S=C1N(c2ccccc2)C(c2ccc(Cl)cc2)N2CCCN12 (centres undefined)    YES

Query :: Which result was noted for this molecule in the test: COc1ccc(CNC(=O)/C=C/c2ccc(OCCCF)cc2)cc1
Result :: NO

Query :: Kindly provide the recorded test outcome for the following molecule: CCCCCC1=C2CNC(C)(C(=O)OC)C=C2C(C)C1=O (centres undefined)
Result :: YES

Query :: # fetch the recorded call for CCCCOc1ccc(/C=C/C(=O)NCCc2nc3ccccc3[nH]2)cc1 here
Result :: YES

Query :: Please share the test call associated with CCCn1nc2cc(C(=O)NCCc3ccc(C)cc3)ccc2c1OCC .
Result :: YES

Query :: Check the results log: what was the call for O=C(NCCOC(=O)c1ccc(C(=O)OCCNC(=O)c2cccnc2)s1)c1cccnc1 ?
Result :: YES

Query :: Hi, do you know how CCn1nc2cc(C(=O)NCC34CC5CC(CC(C5)C3)C4)ccc2c1OC came out in this test?
Result :: YES

Query :: Test call, this molecule: Clc1ccc(Sc2cc(N3CCOCC3)nc(-c3ccccc3)n2)cc1
Result :: YES

Query :: Hey, what did the test say about C/C(=N\OC(=O)c1ccc(F)cc1)c1nccs1 ?
Result :: YES

Query :: Identify the outcome logged in this assay for the molecule shown: O=C(c1cccc(F)c1)N1CCC2(CCN(Cc3nccs3)CC2)CC1
Result :: YES

Cited source: PubChem BioAssay AID1851
